# target.or.test.system: T1, human FGFR2b (Kaixia Biotechnology, catalog number FGR-HM1BB) (human, UniProt P21802-3 22-378)
# T1 construct: extracellular domain; bought; also called hFGFR2b; human FGFR2b protein
# T1 sequence (P21802 other isoform, or with tags, fused parts or gaps): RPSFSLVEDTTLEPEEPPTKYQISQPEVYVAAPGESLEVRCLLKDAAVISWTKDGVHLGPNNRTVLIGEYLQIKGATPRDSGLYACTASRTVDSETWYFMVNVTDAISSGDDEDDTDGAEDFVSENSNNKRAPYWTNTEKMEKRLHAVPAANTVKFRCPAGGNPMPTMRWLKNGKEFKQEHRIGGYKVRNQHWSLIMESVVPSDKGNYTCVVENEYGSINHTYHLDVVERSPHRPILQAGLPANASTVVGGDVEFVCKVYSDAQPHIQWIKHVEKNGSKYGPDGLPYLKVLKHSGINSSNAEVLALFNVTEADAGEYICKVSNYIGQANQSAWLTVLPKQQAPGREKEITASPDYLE
# test.summary: BLI, antibody on AHC2 sensor
Values of Kd strictly less than 2 nM map to condition met, and values of at least 2 nM map to condition not met.

binder	assigned.class
FR21 (antibody, human IgG1, kappa, V domains shown, also called positive control antibody FR21; positive monoclonal antibody FR21) VH: QVQLVQSGAEVKKPGSSVKVSCKASGYIFTTYNVHWVRQAPGQGLEWIGSIYPDNGDTSYNQNFKGRATITADKSTSTAYMELSSLRSEDTAVYYCARGDFAYWGQGTLVTVSS VL: DIQMTQSPSSLSASVGDRVTITCKASQGVSNDVAWYQQKPGKAPKLLIYSASYRYTGVPSRFSGSGSGTDFTFTISSLQPEDIATYYCQQHSTTPYTFGQGTKLEIKR	condition met
3C7-VH1-VL3 (antibody, human IgG1, kappa, V domains shown, humanized IgG1) VH: QVQLVQSGAEVKKPGASVKVSCKASGYIFTNYYIHWVRQAPGQGLEWMGAIYPDNGDTSYNQRFKVRATLTADTSTSTVYMELSSLRSEDTAVYYCARAFTYWGQGTTVTVSS VL: DIQMTQSPSSLSASVGDRVTITCGASENIYGALNWYQRKPGKSPKLLIYGATNLADGVPSRFSGSGSGTDYTLTISSLQPEDVATYYCQNVLSTPYTFGGGTKLEIKR	condition not met
3H9-VH2-VL1 (antibody, human IgG1, kappa, V domains shown, humanized IgG1) VH: QVQLVQSGAEVKKPGASVKVSCKASGYTFSFYNMHWVRQAPGQGLEWIGLIYPDNGDTSYNQKFKGRATLTADTSTSTVYMELSSLRSEDTAVYYCARGGLDYWGQGTTVTVSS VL: DIQMTQSPSSLSASVGDRVTITCRASENIYSNLAWYQQKPGKSPKLLIYAATNLADGVPSRFSGSGSGTDYTLTISSLQPEDFATYYCQHFWGTPYTFGGGTKVEIKR	condition met
3C7-VH1-VL2 (antibody, human IgG1, kappa, V domains shown, humanized IgG1) VH: QVQLVQSGAEVKKPGASVKVSCKASGYIFTNYYIHWVRQAPGQGLEWMGAIYPDNGDTSYNQRFKVRATLTADTSTSTVYMELSSLRSEDTAVYYCARAFTYWGQGTTVTVSS VL: DIQMTQSPSSLSASVGDRVTITCGASENIYGALNWYQRKPGKAPKLLIYGATNLADGVPSRFSGSGSGTDYTLTISSLQPEDFATYYCQNVLSTPYTFGGGTKLEIKR	condition not met
3C7-VH0-VL0 (antibody, human IgG1, kappa, V domains shown, humanized IgG1) VH: QVQLVQSGAEVKKPGASVKVSCKASGYTFTNYYIHWVRQAPGQGLEWMGAIYPDNGDTSYNQRFKVRATLTADTSTSTVYMELSSLRSEDTAVYYCARAFTYWGQGTTVTVSS VL: DIQMTQSPSSLSASVGDRVTITCRASENIYGALNWYQQKPGKAPKLLIYGATNLADGVPSRFSGSGSGTDFTLTISSLQPEDFATYYCQNVLSTPYTFGGGTKVEIKR	condition not met
3C7-VH3-VL2 (antibody, human IgG1, kappa, V domains shown, humanized IgG1) VH: QVQLVQSGAEVKKPGASVKVSCKASGYIFRNYYIHWVKQAPGQGLEWMGAIYPDNGDTSYNQRFKVRATLTADTSTSTVYMELSSLRSEDTAVYYCARAFTYWGQGTTVTVSS VL: DIQMTQSPSSLSASVGDRVTITCGASENIYGALNWYQRKPGKAPKLLIYGATNLADGVPSRFSGSGSGTDYTLTISSLQPEDFATYYCQNVLSTPYTFGGGTKLEIKR	condition not met
3C7-VH2-VL0 (antibody, human IgG1, kappa, V domains shown, humanized IgG1) VH: QVQLVQSGAEVKKPGASVKVSCKASGYIFRNYYIHWVRQAPGQGLEWMGAIYPDNGDTSYNQRFKVRATLTADTSTSTVYMELSSLRSEDTAVYYCARAFTYWGQGTTVTVSS VL: DIQMTQSPSSLSASVGDRVTITCRASENIYGALNWYQQKPGKAPKLLIYGATNLADGVPSRFSGSGSGTDFTLTISSLQPEDFATYYCQNVLSTPYTFGGGTKVEIKR	condition met
3H9-VH1-VL1 (antibody, human IgG1, kappa, V domains shown, humanized IgG1) VH: QVQLVQSGAEVKKPGASVKVSCKASGYTFTFYNMHWVRQAPGQGLEWIGLIYPDNGDTSYNQKFKGRATLTADTSTSTVYMELSSLRSEDTAVYYCARGGLDYWGQGTTVTVSS VL: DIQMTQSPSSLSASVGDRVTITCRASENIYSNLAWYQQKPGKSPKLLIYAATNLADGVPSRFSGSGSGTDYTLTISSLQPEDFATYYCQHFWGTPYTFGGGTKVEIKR	condition not met
3C7-VH2-VL3 (antibody, human IgG1, kappa, V domains shown, humanized IgG1) VH: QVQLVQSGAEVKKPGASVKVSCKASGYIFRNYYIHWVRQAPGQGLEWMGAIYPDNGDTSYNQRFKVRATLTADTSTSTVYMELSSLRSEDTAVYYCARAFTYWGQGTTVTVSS VL: DIQMTQSPSSLSASVGDRVTITCGASENIYGALNWYQRKPGKSPKLLIYGATNLADGVPSRFSGSGSGTDYTLTISSLQPEDVATYYCQNVLSTPYTFGGGTKLEIKR	condition not met
3H9-VH0-VL1 (antibody, human IgG1, kappa, V domains shown, humanized IgG1) VH: QVQLVQSGAEVKKPGASVKVSCKASGYTFTFYNMHWVRQAPGQGLEWMGLIYPDNGDTSYNQKFKGRATLTADTSTSTVYMELSSLRSEDTAVYYCARGGLDYWGQGTTVTVSS VL: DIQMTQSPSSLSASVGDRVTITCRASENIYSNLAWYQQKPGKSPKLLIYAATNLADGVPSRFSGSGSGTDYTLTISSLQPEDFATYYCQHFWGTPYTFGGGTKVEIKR	condition not met
